system: L6; experiment: DNDI: Cytotoxicity against L-6 rat myoblasts from skeletal muscle cells; conditions: L6 rat skeletal muscle myoblast cells
reported-endpoint: IC50 (µM)
Numbers only, in µM.

The examples below pair each entry with its known result.
INPUT: Given CC(C)Oc1ccc(C(O)(c2ccc(C(F)(F)F)cc2)c2cccnc2)cc1 (stereo not given) , state its recorded IC50.
OUTPUT: 47.6

INPUT: Item under review: O=C(Nc1ccc(Cl)cc1)N1CCN(C(c2ccc(Cl)cc2)c2cncnc2)CC1 (stereo not given) . Reported IC50?
OUTPUT: 58.8

INPUT: # get_value(readout='IC50', item= COc1ccccc1N1CCN(C(c2ccc(Cl)cc2)c2cccnc2)CC1 (stereo not given) )
OUTPUT: 61.1

INPUT: Find the recorded IC50 belonging to CC(C)Oc1ccc(C(O)(c2ccc(Cl)cc2)c2cccnc2)cc1 (stereo not given) and report it.
OUTPUT: 56.6

INPUT: I have this compound here, O=C(Nc1ccccc1)N1CCN(C(c2ccc(Cl)cc2)c2cccnc2)CC1 (stereo not given) , and I need its recorded IC50.
OUTPUT: 67.2

Could I get IC50 for every one of these entries?
1. CC(C)(C)OC(=O)N1CCN(C(c2cccnc2)c2ccc(Cl)cc2F)CC1 (stereo not given)
2. N#Cc1ccc(C(O)(c2ccc(C(F)(F)F)cc2)c2cccnc2)c(F)c1 (stereo not given)
3. O=S(=O)(C1CCCCC1)N1CCN(C(c2ccc(Cl)cc2)c2cccnc2)CC1 (stereo not given)
4. CC(C)Oc1ncc(C(O)(c2cccnc2)c2ccc(Cl)cc2F)cn1 (stereo not given)
5. O=C(Nc1ccccc1)N1CCN(C(c2cccnc2)c2ccc(Cl)cc2F)CC1 (stereo not given)

OUTPUT:
1: 43.5; 2: 56.1; 3: 55.8; 4: 89.5; 5: 45.1
